All figures here come from patent US20170198005A1.

test: Cytotoxicity evaluation, CellTiter-Blue Cell Viability Assay; format: cell-based; settings: human, Zluc cells (Huh-7-derived HCV replicon cell line)
assay metric: CC50

As a guide, the following entries are already answered.
compound	assay metric	reported value
Nc1ncnc2c1ncn2[C@@H]1O[C@H](CO)[C@@H](O)C1(Cl)Cl [Compound 1011]	CC50	> 50 µM
CC(C)OC(=O)[C@H](C)N[P@](=O)(OCCSC(=O)C(C)(C)C)OC[C@H]1O[C@@H](n2ccc(N)nc2=O)C(Cl)(Cl)[C@@H]1O (single isomer, unassigned) [101b (Diast. 1)]	CC50	> 50 µM
O=c1ccn([C@@H]2O[C@H](CO)[C@@H](O)C2(Cl)Cl)c(=O)[nH]1 [Compound 1002]	CC50	> 50 µM
O=c1ccn([C@@H]2O[C@H](CO)[C@@H](O)[C@]2(F)Cl)c(=O)[nH]1 [Compound 1006]	CC50	> 50 µM
CC(C)OP1(=O)OC[C@H]2O[C@@H](n3ccc(N)nc3=O)C(Cl)(Cl)[C@@H]2O1 (single isomer, unassigned) [104 (Diast. 1)]	CC50	> 50 µM

q: Recorded CC50 for CC(C)OC(=O)[C@H](C)NP(=O)(OCCSC(=O)C(C)(C)C)OC[C@H]1O[C@@H](n2cnc3c(N)ncnc32)C(Cl)(Cl)[C@@H]1O (single isomer, unassigned) [117b (Diast. 1)] , please?
a: ≤ 50 µM
